system-under-test: Cytochrome P450 1A2 (Homo sapiens) (UniProt P05177)
Sequence (P05177 whole entry, looked up): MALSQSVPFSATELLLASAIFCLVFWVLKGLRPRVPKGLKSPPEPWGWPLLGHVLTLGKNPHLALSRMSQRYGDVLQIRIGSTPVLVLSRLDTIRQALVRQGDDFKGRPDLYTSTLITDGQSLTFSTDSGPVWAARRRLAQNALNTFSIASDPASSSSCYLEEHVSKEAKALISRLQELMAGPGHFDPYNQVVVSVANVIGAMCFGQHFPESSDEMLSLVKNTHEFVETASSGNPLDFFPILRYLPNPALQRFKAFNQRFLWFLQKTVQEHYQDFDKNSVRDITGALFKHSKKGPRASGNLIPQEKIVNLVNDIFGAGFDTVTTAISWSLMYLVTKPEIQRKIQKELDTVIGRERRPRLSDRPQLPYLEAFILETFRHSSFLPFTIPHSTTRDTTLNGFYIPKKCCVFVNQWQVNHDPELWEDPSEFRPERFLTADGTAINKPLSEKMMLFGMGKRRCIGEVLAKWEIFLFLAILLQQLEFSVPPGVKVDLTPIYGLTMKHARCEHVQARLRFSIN
test-method-notes: p450-cyp1a2 (AID 410); further: potency means the concentration at half of the fitted maximal effect
test-settings: recombinant CYP1A2, luciferin-ME demethylation, luminescence; series mostly up to 57 µM
Results filed as inconclusive are left out. Activity calls are given as the source filed them. The call rests on the fitted dose curve.
reported-endpoint: Potency

structure_smiles_string=c1ccc([C@H]2CNCc3ccccc32)cc1 observed_measurement=inactive
structure_smiles_string=CP(=O)(O)CCCN observed_measurement=inactive
structure_smiles_string=Cc1c(C(=O)c2ccc3ccccc3c2)c2cccc3c2n1[C@H](CN1CCOCC1)CO3 observed_measurement=inactive
structure_smiles_string=c1ccc2c(c1)OC[C@@H](C1=NCCN1)O2 observed_measurement=inactive
structure_smiles_string=CC(=O)N1CC[N+](C)(C)CC1 observed_measurement=inactive
structure_smiles_string=CC(C)(C)c1o[nH]c(=O)c1C[C@H](N)C(=O)O observed_measurement=inactive
structure_smiles_string=CCCOc1ccc2[nH]cc(C3=CCNCC3)c2n1 observed_measurement="0.126 µM (active)"
structure_smiles_string=C/C(=C\C=C/[C@@H](C)C(=O)O)[C@H]1CN[C@H](C(=O)O)[C@@H]1CC(=O)O observed_measurement=inactive
structure_smiles_string=O=C(O)c1ccccc1-c1c2cc(Br)c(=O)cc-2oc2[c]([Hg])c(O)c(Br)cc12 observed_measurement="15.8 µM (active)"
structure_smiles_string=N[C@@]1(C(=O)O)CC[C@H](C(=O)O)C1 observed_measurement=inactive
structure_smiles_string=CC1=C[C@@H]2c3cccc4[nH]cc(c34)C[C@H]2N(C)C1 observed_measurement="3.16 µM (active)"
structure_smiles_string=C=C(C)[C@H]1CN[C@H](C(=O)O)[C@@H]1CC(=O)O observed_measurement=inactive
structure_smiles_string=O=C1NCN(c2ccccc2)C12CCN(C[C@H]1COc3ccccc3O1)CC2 observed_measurement="12.6 µM (active)"
structure_smiles_string=CC[C@]1(C2=NCCN2)Cc2ccccc2O1 observed_measurement=inactive
structure_smiles_string=Cn1cc(C(=O)C(=O)N[C@H]2CN3CCC2CC3)c2ccccc21 observed_measurement="15.8 µM (active)"
structure_smiles_string=N[C@@H](Cn1ccc(=O)n(Cc2ccc(C(=O)O)cc2)c1=O)C(=O)O observed_measurement=inactive
structure_smiles_string=N[C@H](C(=O)O)c1cc(=O)[nH]o1 observed_measurement=inactive
structure_smiles_string=NC[C@H](CS(=O)(=O)O)c1ccc(Cl)cc1 observed_measurement=inactive
structure_smiles_string=COc1ccc(-n2nc(C(F)(F)F)cc2-c2ccc(Cl)cc2)cc1 observed_measurement="0.501 µM (active)"
structure_smiles_string=CC(=O)C1=C(O)[C@@H]2[C@@H]3c4c[nH]c5cccc(c45)C[C@@H]3C(C)(C)N2C1=O observed_measurement="12.6 µM (active)"
structure_smiles_string=O=C(O)[C@H]1[C@H]2CN[C@H](C(=O)O)[C@H]21 observed_measurement="31.6 µM (active)"
structure_smiles_string=CCOC(=O)c1ncn2c1[C@H]1CCCN1C(=O)c1cc(OC)ccc1-2 observed_measurement=inactive
structure_smiles_string=C[C@@H](N)Cn1ccc2cc(F)c(Cl)cc21 observed_measurement="0.0501 µM (active)"
structure_smiles_string=S=C=Nc1cccc(C2(N3CCCCC3)CCCCC2)c1 observed_measurement=inactive
